Target: WEE1 (Homo sapiens, UniProt P30291+Q96SW2)
Construct: C-terminal ePL-tagged (DiscoverX, Fremont, CA) full-length WEE1 expression construct; expressed in transfected cells; host or cells: LentiX-HEK293T (Invitrogen), lentiviral transduction; co-expressing GSPT1-GN (G576N, lacking the first 158 amino acids)
Assay: WEE1-ePL degradation assay (LentiX-WEE1-ePL-GSPT1-ND cells, InCELL Hunter luminescence, 4 h)
Type: cell-based
Conditions: 293T-LentiX WEE1-ePL cells, lower limit of the fit (Ymin=0 luciferase inhibitor, Ymax DMSO control)
readout.label: 293T-LentiX WEE1-ePL Degradation 4 hr (Ymin)
Lab note: jot the number down without any unit.

# annotated cases, reported 293T-LentiX WEE1-ePL Degradation 4 hr (Ymin) shown
[Q] Can you look up the measured 293T-LentiX WEE1-ePL Degradation 4 hr (Ymin) of O=C1CCC(N2Cc3cc(O[C@@H]4CN(Cc5ccc6nc([C@H]7CCOC7)ccc6c5)C[C@H]4C(F)(F)F)ccc3C2=O)C(=O)N1 (stereo partly drawn) for me?
[A] 27.14

[Q] Can you look up the measured 293T-LentiX WEE1-ePL Degradation 4 hr (Ymin) of CC(=O)N1CCN(c2ccc3cc(CN4CC[C@H](Oc5ccc6c(c5)CN([C@H]5CCC(=O)NC5=O)C6=O)C4)ccc3n2)CC1 for me?
[A] 40.44

[Q] Can you look up the measured 293T-LentiX WEE1-ePL Degradation 4 hr (Ymin) of C[C@@H]1CN(Cc2ccc3nc([C@@H]4CCOC(C)(C)C4)ccc3c2)C[C@H]1Oc1ccc2c(c1)CN([C@H]1CCC(=O)NC1=O)C2=O for me?
[A] 24.64

[Q] Can you look up the measured 293T-LentiX WEE1-ePL Degradation 4 hr (Ymin) of O=C1CC[C@H](N2Cc3cc(O[C@H]4CCN(Cc5ccc6nc(N7CCCC7)ncc6c5)C4)ccc3C2=O)C(=O)N1 for me?
[A] 43.18

[Q] Can you look up the measured 293T-LentiX WEE1-ePL Degradation 4 hr (Ymin) of CC(C)(O)c1cc(CN2CC[C@H](Oc3ccc4c(c3)CN([C@H]3CCC(=O)NC3=O)C4=O)C2)cc2ccc(C3CCOCC3)nc12 for me?
[A] 53.75

Others:
[Q] Can you look up the measured 293T-LentiX WEE1-ePL Degradation 4 hr (Ymin) of O=C1CC[C@H](N2Cc3cc(O[C@H]4CCN(Cc5cc(F)c6nc([C@@H]7CCOC7)ccc6c5)C4)ccc3C2=O)C(=O)N1 for me?
[A] 34.19

[Q] Can you look up the measured 293T-LentiX WEE1-ePL Degradation 4 hr (Ymin) of C[C@@H]1CN(Cc2ccc3nc([C@@H]4CCOC4)ccc3c2)C[C@H]1Oc1ccc2c(c1)CN(C1CCC(=O)NC1=O)C2=O (stereo partly drawn) for me?
[A] 33.96

[Q] Can you look up the measured 293T-LentiX WEE1-ePL Degradation 4 hr (Ymin) of CN1CC[C@H](c2ncc3cc(CN4CC[C@H](Oc5ccc6c(c5)CN(C5CCC(=O)NC5=O)C6=O)C4)ccc3n2)C1 (stereo partly drawn) for me?
[A] 36.52

[Q] Can you look up the measured 293T-LentiX WEE1-ePL Degradation 4 hr (Ymin) of O=C1CCC(N2Cc3cc(O[C@H]4CCN(Cc5ccc6nc(C7CCOCC7)ccc6c5)C4)c(F)cc3C2=O)C(=O)N1 (stereo partly drawn) for me?
[A] 30.27

[Q] Can you look up the measured 293T-LentiX WEE1-ePL Degradation 4 hr (Ymin) of O=C1CCC(N2Cc3cc(O[C@@H]4CCN(Cc5ccc6ncccc6c5)C4)ccc3C2=O)C(=O)N1 (stereo partly drawn) for me?
[A] 90.24

[Q] Can you look up the measured 293T-LentiX WEE1-ePL Degradation 4 hr (Ymin) of O=C1CC[C@H](N2Cc3cc(O[C@H]4CCN(Cc5cc(F)c6nc(N7CCOCC7)ncc6c5)C4)ccc3C2=O)C(=O)N1 for me?
[A] 32.63

[Q] Can you look up the measured 293T-LentiX WEE1-ePL Degradation 4 hr (Ymin) of CO[C@H]1CCCC[C@@H]1c1ccc2cc(CN3CC[C@H](Oc4ccc5c(c4)CN(C4CCC(=O)NC4=O)C5=O)C3)ccc2n1 (stereo partly drawn) for me?
[A] 25.39
